System: TK-10 renal
Test: NCI tumour cell line growth inhibition, 48 h
Parameter: TGI

Prompt: GET /values?readout=TGI&system=TK-10 renal&item= `Cc1ccc(NCSc2ccc(Cl)cc2)cc1`
Completion: > 100 µM

Prompt: Subsequent entry: O=C1CSC2(CC(/C=C/C=C/c3ccccc3)=NN2c2cccc(S(=O)(=O)O)c2)N1c1nc2ccccc2s1 (centres undefined)
Completion: > 100 µM

Prompt: Subsequent entry: `O=C1/C(=C/c2cccc(Oc3ccccc3)c2)N=C(c2ccccc2)N1c1nc2ccc(Sc3ccccc3)cc2[nH]1`
Completion: 68.4 µM

Prompt: Subsequent entry: `Cc1cc(CS(=O)(=O)/C=C/c2ccccc2[N+](=O)[O-])c(CS(=O)(=O)/C=C/c2ccccc2[N+](=O)[O-])cc1C`
Completion: > 81.8 µM

* * *

System: HS 578T breast
Assay: NCI tumour cell line growth inhibition, 48 h
// reported TGI per item

Example entries and their recorded answers appear below.
{"Smiles": "O=C(C[C@@H]1NCCC[C@H]1O)Cn1cnc2cc(Br)c(Cl)cc2c1=O", "Experimental target": "HS 578T breast", "Result": "1.36 µM"}
{"Smiles": "Oc1c2cccc1Cc1cccc3c1OCCOCCOCCOCCOc1c(cccc1Cc1cccc(c1O)C3)C2", "Experimental target": "HS 578T breast", "Result": "> 100 µM"}

Would you kindly look at the next entry?
Prompt: Report TGI for `Cc1cc(CS(=O)(=O)/C=C/c2ccccc2[N+](=O)[O-])c(CS(=O)(=O)/C=C/c2ccccc2[N+](=O)[O-])cc1C` please.
Completion: > 62.5 µM

* * *

Test system: MCF7 breast
Assay: NCI tumour cell line growth inhibition, 48 h
Parameter: TGI

Example entries and their recorded answers appear below.
{"Molecule": "CCOP(=O)(OCC)/C(C#N)=C\\c1cccc2ccccc12", "TGI": "> 100 µM"}
{"Molecule": "CC(=O)Oc1ccc2cc(Oc3ccc(Cl)cc3)c(=O)oc2c1", "TGI": "> 100 µM"}
{"Molecule": "COc1ccccc1C(=O)c1c(N2CCCCC2)c(=O)c1=O", "TGI": "> 100 µM"}
{"Molecule": "O=C(C[C@@H]1NCCC[C@H]1O)Cn1cnc2cc(Br)c(Cl)cc2c1=O", "TGI": "20.3 µM"}
{"Molecule": "O=C1CSC2(CC(/C=C/C=C/c3ccccc3)=NN2c2cccc(S(=O)(=O)O)c2)N1c1nc2ccccc2s1 (stereo unspecified)", "TGI": "> 100 µM"}

Prompt: Report TGI for `Cc1ncc([N+](=O)[O-])n1CCN=[N+]=[N-]` please.
Completion: > 100 µM

Prompt: Subsequent entry: CCCCCCCCCCCCOC1C(COCCN2CCCC2)OC2OC(C)(C)OC21 (stereo unspecified)
Completion: 3.1 µM

Prompt: Subsequent entry: `C#CC(C)(C)Oc1cc(OC)c2c(=O)c3ccccc3n(C)c2c1`
Completion: > 100 µM

Prompt: Subsequent entry: `CC1=NN(c2nc(N)nc(/C(C#N)=C/c3ccncc3)n2)C(C)(C)C1`
Completion: > 100 µM

Prompt: Subsequent entry: `COc1cc(S(=O)(=O)Nc2nc(-c3ccc(N4C(=O)/C(=C/c5ccccc5)N=C4c4ccccc4)cc3)cs2)ccc1Cl`
Completion: > 100 µM

Prompt: Subsequent entry: `Oc1c2cccc1Cc1cccc3c1OCCOCCOCCOCCOc1c(cccc1Cc1cccc(c1O)C3)C2`
Completion: > 100 µM

* * *

System: UO-31 renal
Assay: NCI tumour cell line growth inhibition, 48 h
Parameter: TGI (µM)
State the answer as a number, implicitly in µM.

{"Smiles": "CCCCCCCCCCCCCCCC[N+]1(CC)CCCC1", "TGI, µM": 11.6}

Would you kindly look at the next entry?
Prompt: GET /values?readout=TGI&system=UO-31 renal&item= `CCOC(=O)c1c2c(n(C)c1-c1ccccc1)C(=O)C(C)=CC2=O`
Completion: 26.6

* * *

Test system: 786-0 renal
Test: NCI tumour cell line growth inhibition, 48 h
Parameter: TGI

{"Molecule": "O=C1NC(=O)/C(=C\\c2ccncc2)N1", "Experimental target": "786-0 renal", "TGI": "> 100 µM"}
{"Molecule": "COc1ccc(C2CC(c3c(C)nn(-c4ccccc4)c3-c3ccc(C)cc3O)=NN2c2ccccc2)cc1 (stereo not given)", "Experimental target": "786-0 renal", "TGI": "> 100 µM"}

Prompt: Report TGI for `O=C(CCCCCCCCCCc1ccccc1)c1c(O)cccc1O` please.
Completion: 32.3 µM

Prompt: Subsequent entry: `CC(C)OP(=O)(OC(C)C)C(N(C)C)P(=O)(OC(C)C)OC(C)C.[Cl][Sn]([Cl])([Cl])[c]1ccccc1`
Completion: 12.3 µM

Prompt: Subsequent entry: `c1ccc(C2=NN3CN(N2)c2ccccc2OCCCOc2ccccc23)cc1`
Completion: > 100 µM

Prompt: Subsequent entry: `Cc1[nH]c(=O)nc(N/N=C/c2ccc(Cl)c(Cl)c2)c1C(=O)Nc1ccc(Cl)c(Cl)c1`
Completion: > 39 µM

Prompt: Subsequent entry: `NC1=NS(=O)(=O)N=C(N)C1=Cc1ccc([N+](=O)[O-])o1`
Completion: 30.8 µM

Prompt: Subsequent entry: O=C1c2ccccc2-c2ccc(NC(=O)C3CCCCC3C(=O)O)cc21 (stereo not given)
Completion: > 100 µM

Prompt: Subsequent entry: `COc1ccccc1C(=O)c1cnc(NC2CCN(S(C)(=O)=O)CC2)nc1N`
Completion: > 25 µM

Prompt: Subsequent entry: O=C1CCC2(CC1)Cc1ccccc1C2O (stereo not given)
Completion: > 100 µM

* * *

// reported GI50 per item
System: TK-10 renal
Experiment: NCI tumour cell line growth inhibition, 48 h

{"Molecule": "O=C1c2c(O)cccc2C(C(=O)CCCCC(=O)C2c3cccc(O)c3C(=O)c3c(O)cccc32)c2cccc(O)c21", "GI50": "2850 nM"}
{"Molecule": "CN1C(=O)c2cc(Cl)nc3c(NC(=O)c4cccc(Cl)c4)c(Cl)c(NC(=O)c4cccc(Cl)c4)c1c23", "GI50": "2280 nM"}
{"Molecule": "COc1cc(C2C3=C(COC3=O)N(CCO)c3cc4c(cc32)CCC4)cc(OC)c1O (stereo not drawn)", "GI50": "> 32500 nM"}
{"Molecule": "CCN(CC)CCC(=O)Nc1ccc(Cn2nnc3c2C(=O)c2nnn(Cc4ccc(NC(=O)CCN(CC)CC)cc4)c2C3=O)cc1", "GI50": "13200 nM"}
{"Molecule": "N#CC1c2ccccc2-c2ccccc2N1C(=O)c1ccccc1 (stereo not drawn)", "GI50": "1230 nM"}
{"Molecule": "CCN(CC)CCOc1ccc(/C=C2\\C[C@H]3[C@@H]4CC=C5C[C@@H](OC(C)=O)CC[C@]5(C)[C@H]4CC[C@]3(C)[C@H]2OC(C)=O)cc1OC", "GI50": "9670 nM"}
{"Molecule": "O=C1c2cccnc2C(=O)c2c1c(C(=O)OCCCN1CCOCC1)c1ccccn21", "GI50": "29.2 nM"}

Would you kindly look at the next entry?
Prompt: Report GI50 for `CC(C)OP(=O)(OC(C)C)C(N(C)C)P(=O)(OC(C)C)OC(C)C.[Cl][Sn]([Cl])([Cl])[c]1ccccc1` please.
Completion: 14400 nM

* * *

Tested on: SNB-19 CNS
Test: NCI tumour cell line growth inhibition, 48 h
// reported TGI per item

{"Molecule": "N#CC1c2ccccc2-c2ccccc2N1C(=O)c1ccccc1 (stereo unspecified)", "Experimental target": "SNB-19 CNS", "Result": "> 100 µM"}
{"Molecule": "OC(CC(c1ccccc1)c1ccc(Cl)cc1)c1ccc(Cl)cc1 (stereo unspecified)", "Experimental target": "SNB-19 CNS", "Result": "> 100 µM"}
{"Molecule": "NC1=NS(=O)(=O)N=C(N)C1=Cc1ccc([N+](=O)[O-])o1", "Experimental target": "SNB-19 CNS", "Result": "> 100 µM"}

Prompt: Report TGI for `N#Cc1c(N)c(-c2ccc(Cl)cc2)c(F)c2ccccc12` please.
Completion: > 100 µM

Prompt: Subsequent entry: `O=C(CCCCCCCCCCc1ccccc1)c1c(O)cccc1O`
Completion: 41.3 µM

* * *

// reported GI50 per item
Tested on: IGROV1 ovarian
Test: NCI tumour cell line growth inhibition, 48 h

{"Molecule": "CCCC/C(=N\\N=C(N)N)c1ccc(F)cc1", "Parameter": "GI50", "Result": "5.06 µM"}
{"Molecule": "COC(=O)c1cc(Nc2ccc(O)c3c2C(=O)c2c([N+](=O)[O-])ccc(O)c2C3=O)cc(C(=O)OC)c1", "Parameter": "GI50", "Result": "26.9 µM"}
{"Molecule": "CN1CCCC1c1cccnc1.O=C(O)c1ccccc1O.O=C([O-])c1ccccc1[OH2+].O=C([O-])c1ccccc1[OH2+].O=C([O-])c1ccccc1[OH2+].[Mn+2] (centres undefined)", "Parameter": "GI50", "Result": "97.7 µM"}
{"Molecule": "COc1cccc(-c2nn(-c3ccccc3)cc2-c2ccnc(NCCNC(=O)Nc3ccc(Cl)c(Cl)c3)c2)c1", "Parameter": "GI50", "Result": "3.61 µM"}
{"Molecule": "Cc1ccc([P+](Cc2ccc([N+](=O)[O-])cc2)(c2ccc(C)cc2)c2ccc(C)cc2)cc1", "Parameter": "GI50", "Result": "2.53 µM"}
{"Molecule": "COc1ccccc1Cn1cc2c(c1)-c1oncc1CC2", "Parameter": "GI50", "Result": "1.84 µM"}
{"Molecule": "CC(C)OP(=O)(CP(=O)(OC(C)C)OC(C)C)OC(C)C.[CH3][Sn]([Br])([Br])[Br]", "Parameter": "GI50", "Result": "> 100 µM"}
{"Molecule": "Cc1nn(-c2ccccc2)c2c1C1C(=C(c3ccc(Cl)cc3)N2)C(=O)Nc2ccccc21 (centres undefined)", "Parameter": "GI50", "Result": "3.82 µM"}

Would you kindly look at the next entry?
Prompt: Report GI50 for `CC[C@]12C=CCN3CC[C@]4(C(=C(C(=O)OC)C1)Nc1cc(O)ccc14)[C@@H]32` please.
Completion: 19.1 µM
